Tested on: HEK-293T
experiment description: Multiplex assay against HEK293T
Assay type: toxicity, cell-based
protocol conditions: human, 12 h, 1 µM, compound concentration 1 uM, replicate 2
Answer each item with its documented Population Normal (%).
Use % as the unit, but write only the number.

## Input I'm curious: which Population Normal (%) was measured for CCn1c(-c2nonc2N)nc2cnc(Oc3cccc(NC(=O)c4ccc(OCCN5CCOCC5)cc4)c3)cc21 [GSK-269962A] tested on HEK-293T?
## Output 93

## Input Lookup: Population Normal (%) / HEK-293T / c1ccc2oc(-c3csc(C4CCN(Cc5nc6ncccc6[nH]5)CC4)n3)cc2c1
## Output 95

## Input Reported Population Normal (%) for HEK-293T, given CC(=O)O[C@H]1C(=O)[C@@]2(C)[C@H]([C@H](OC(=O)c3ccccc3)[C@]3(O)C[C@H](OC(=O)[C@H](O)[C@@H](NC(=O)c4ccccc4)c4ccccc4)C(C)=C1C3(C)C)[C@]1(OC(C)=O)CO[C@@H]1C[C@@H]2O ?
## Output 98

## Input // map CC(=O)c1cc(-c2cc(C(=O)NC3CC3)ccc2C)c2ncccn12 to recorded Population Normal (%) (system: HEK-293T)
## Output 96

## Input Hi! What's the reported Population Normal (%) for COc1cc2c(Nc3ccc(NC(=O)c4ccccc4)cc3)ncnc2cc1OCCCN1CCOCC1 on HEK-293T?
## Output 93

## Input Entry CN(C)C/C=C/C(=O)Nc1cc2c(Nc3ccc(F)c(Cl)c3)ncnc2cc1O[C@H]1CCOC1.O=C(O)/C=C\C(=O)O.O=C(O)/C=C\C(=O)O [AFATINIB DIMALEATE] , system HEK-293T: what Population Normal (%) was measured?
## Output 96

## Input API: value(readout= Population Normal (%), system= HEK-293T, query= Cc1cc2c(cc1N1C(=O)c3cccc4c(CCCO)ccc(c34)C1=O)n(C)c(=O)n2C )
## Output 93

## Input # get_value(readout= Population Normal (%), system= HEK-293T) for CNC(=O)c1cc(Oc2ccc(NC(=O)Nc3cc(C(C)(C)C)nn3-c3ccc4ncccc4c3)c(F)c2)ccn1
## Output 95

## Input Request: Population Normal (%), test system HEK-293T, entry CCC(=O)O[C@]1(C(=O)SCF)[C@H](C)C[C@H]2[C@@H]3C[C@H](F)C4=CC(=O)C=C[C@]4(C)[C@@]3(F)[C@@H](O)C[C@@]21C [FLUTICASONE PROPIONATE]
## Output 97

## Input Please tell me: Population Normal (%) of CC(C)N1CCC(C)(C)c2cc(C#Cc3ccc(C(=O)O)cc3)ccc21 , system HEK-293T?
## Output 91

## Input Form field - read-out: Population Normal (%); system: HEK-293T; submitted item: O=C(O)c1ccc2cc(-c3ccc(O)c(C45CC6CC(CC(C6)C4)C5)c3)ccc2c1
## Output 95

## Input // map CCCn1c(=O)c2[nH]c(C34CC5CC(CC3C5)C4)nc2n(CCC)c1=O to recorded Population Normal (%) (system: HEK-293T)
## Output 95

## Input For HEK-293T, provide Population Normal (%) of Cl.Cl.NC1(c2ccc(-c3nc4ccn5c(=O)[nH]nc5c4cc3-c3ccccc3)cc2)CCC1 please.
## Output 94

## Input Write down the reported Population Normal (%) of CCOc1cc2ncc(C#N)c(Nc3ccc(OCc4cccc(F)c4)c(Cl)c3)c2cc1NC(=O)/C=C/CN(C)C , test system: HEK-293T.
## Output 98

## Input Form field: Population Normal (%) recorded for CN(C)CCOc1ccc(-c2nc(-c3ccncc3)c(-c3ccc4c(c3)CC/C4=N\O)[nH]2)cc1 with HEK-293T (enter value)
## Output 87
